# Test System: T1, Cdh1-activated yeast APC/C (S. cerevisiae | S. cerevisiae …, UniProt P53197 1-566; P53886 1-1748; P09798 1-840; P38042 1-758; P53068 1-250)
# T1 construct: Apc1 subunit of the APC/C, from yeast strain NHY13; Cdc16 subunit of the APC/C (Cdc16-TAP); Cdc27 subunit of the APC/C; Apc10/Doc1 subunit of the APC/C; only Apc1, Cdc16, Cdc27 and Apc10 are named; the yeast strain lacks endogenous Cdh1; TEV cleavage of the TAP tag may leave part of the tag on Cdc16; also called APC/C^Cdh1; not shown: 2xStrep-Tag II, N-terminal, kept; GFP, C-terminal, kept; …
# Measurement Notes: single-molecule off-rate (SMOR) assay, TIRF microscopy; target held on PEG/PEG-biotin glass by NeutrAvidin and biotinylated anti-Strep-Tag II antibody (tag on the activator); dye-labeled ligand (peptide no greater than 1 nM) in buffer C + BSA (20 mM HEPES pH 7.5, 150 mM KCl, 10% glycerol, 0.05% Tween-20, 1 mM DTT) with oxygen scavengers; mean dwell time from an exponential distribution; dwell times below 100 ms …
# Stated Conditions: both partners purified
Where no end group is shown, it is not given here. Cy5 = cyanine-5 fluorescent label
Classify as follows. Reported mean dwell time greater than or equal to 0.4 s: fulfilled. Reported mean dwell time below: not fulfilled.

Hsl1 fragment (amino acids 667–872) with C-terminal HaloTag, mutations in the D box (domain or fragment, JF549 or JF646 dye covalently bound to the HaloTag) QNSASKRSLYSLQSISKRSLNLNDLLVFDDPLPSKKPASENVNKSEPHSLESDSDFEILCDQILFGNALDRILEEEEDNEKERDTQRQRQNDTKSSADTFTISGVSTNKENEGPEYPTKIEKNQFNMSYKPSENMSGLSSFPIFEKENTLSSSYLEEQKPKAAAASDITASFNKMNKQEGMRIEKKIQREQLQKKNDRPSPLKPIQ    not fulfilled
AQQQGRLPLAAKDNNRSKSFIK-Cy5 [Cy5-labeled ySecurin D box peptide]    not fulfilled
GVSTNKENEGPEYPTKIEK-Cy5 [Cy5-labeled Hsl1 KEN peptide]    not fulfilled
EQKPKRAALSDITNSFNKMNK-Cy5 [Cy5-labeled Hsl1 D box peptide]    fulfilled
QDSKPRRALTDVPVNNNPLSQK-Cy5 [Cy5-labeled Clb5 D box peptide]    not fulfilled

Data provenance: paper PMC8764033
